Test Name: Study 200912: single dose 100-200 mg, SDD versus nonmicronized API PiB, healthy subjects
Assay type: in vivo, human
Conditions Used: human, plasma, oral, 20 mg, single 20 mg API PiB, fasted, with ritonavir (predosing 10 days), Study 200912; geometric mean (95% CI)
Value Type: Cmax (ng/mL)
Numeric only. Scale: ng/mL

Challenge: Entry under review: CC(C)C1=C2[C@H]3CC[C@@H]4[C@@]5(C)CC[C@H](OC(=O)CC(C)(C)C(=O)O)C(C)(C)[C@@H]5CC[C@@]4(C)[C@]3(C)CC[C@@]2([C@@H](O)CN(CCN(C)C)Cc2ccc(Cl)cc2)CC1=O . Reported Cmax?
Response given: 4.89

====

Test Name: Study 204953 Part 2: repeat dosing for 11 days with RTV QD or 200 mg BID unboosted
Format: in vivo, human
Conditions Used: human, plasma, oral, Study Day 11, 20 mg QD + RTV (PiB), Study 204953; median (range)
Value Type: Tmax (h)
Write it as a number; the unit h goes unstated.

Challenge: Item CC(C)C1=C2[C@H]3CC[C@@H]4[C@@]5(C)CC[C@H](OC(=O)CC(C)(C)C(=O)O)C(C)(C)[C@@H]5CC[C@@]4(C)[C@]3(C)CC[C@@]2([C@@H](O)CN(CCN(C)C)Cc2ccc(Cl)cc2)CC1=O has what recorded Tmax?
Response given: 5.98

====

Test Name: Study HMI116787: single ascending dose, food effect and RTV boosting, SDD PiB, healthy subjects
Assay type: in vivo, human
Conditions Used: human, plasma, oral; single 20 mg SDD PiB, fasted, without ritonavir, Study HMI116787; median (range)
Value Type: Tmax (h)
// units = h; emit number, no label

Challenge: Quick one: Tmax of CC(C)C1=C2[C@H]3CC[C@@H]4[C@@]5(C)CC[C@H](OC(=O)CC(C)(C)C(=O)O)C(C)(C)[C@@H]5CC[C@@]4(C)[C@]3(C)CC[C@@]2([C@@H](O)CN(CCN(C)C)Cc2ccc(Cl)cc2)CC1=O ?
Response given: 1.75

====

Test Name: Study 200912: single dose 100-200 mg, SDD versus nonmicronized API PiB, healthy subjects
Format: in vivo, human
Conditions Used: human, plasma, oral, 100 mg, single 100 mg API PiB, fasted, without ritonavir, Study 200912; geometric mean (95% CI)
Value Type: Cmax (ng/mL)
Write the number in ng/mL without appending the unit.

Challenge: Fill in: Cmax of CC(C)C1=C2[C@H]3CC[C@@H]4[C@@]5(C)CC[C@H](OC(=O)CC(C)(C)C(=O)O)C(C)(C)[C@@H]5CC[C@@]4(C)[C@]3(C)CC[C@@]2([C@@H](O)CN(CCN(C)C)Cc2ccc(Cl)cc2)CC1=O is ___
Response given: 6.15

====

Test Name: Study 204953 Part 1A: single doses 50-250 mg API PiB with RTV, healthy subjects
Format: in vivo, human
Conditions Used: human, plasma, oral, single 250 mg API PiB, fasted, with ritonavir (2 days predosing), median (range)
Value Type: Tmax

Challenge: Field request: Tmax | item: CC(C)C1=C2[C@H]3CC[C@@H]4[C@@]5(C)CC[C@H](OC(=O)CC(C)(C)C(=O)O)C(C)(C)[C@@H]5CC[C@@]4(C)[C@]3(C)CC[C@@]2([C@@H](O)CN(CCN(C)C)Cc2ccc(Cl)cc2)CC1=O
Response given: 5.98 h

====

Test Name: Study 204953 Part 2: repeat dosing for 11 days with RTV QD or 200 mg BID unboosted
Assay type: in vivo, human
Conditions Used: human, plasma, oral, 50 mg, Study day 1, 50 mg QD + RTV (PiB), τ = 24 hours, Study 204953; geometric mean (95% CI); read-out: AUC(0‐τ)
Value Type: AUC (ng·h/mL)
Your answer is read as ng·h/mL, so omit the unit and give the number.

Challenge: Name the recorded AUC for CC(C)C1=C2[C@H]3CC[C@@H]4[C@@]5(C)CC[C@H](OC(=O)CC(C)(C)C(=O)O)C(C)(C)[C@@H]5CC[C@@]4(C)[C@]3(C)CC[C@@]2([C@@H](O)CN(CCN(C)C)Cc2ccc(Cl)cc2)CC1=O [GSK2838232] .
Response given: 265

====

Test Name: Study 204953 Part 2: repeat dosing for 11 days with RTV QD or 200 mg BID unboosted
Type: in vivo, human
Conditions Used: human, plasma, oral, Study Day 11, 50 mg QD + RTV (PiB), τ = 24 hours, Study 204953; median (range); read-out: Cτ
Value Type: concentration at 24 h (ng/mL)
Write the answer as a number in ng/mL, unit excluded.

Challenge: Could you share which concentration at 24 h value was measured for CC(C)C1=C2[C@H]3CC[C@@H]4[C@@]5(C)CC[C@H](OC(=O)CC(C)(C)C(=O)O)C(C)(C)[C@@H]5CC[C@@]4(C)[C@]3(C)CC[C@@]2([C@@H](O)CN(CCN(C)C)Cc2ccc(Cl)cc2)CC1=O ?
Response given: 40.8

====

Test Name: Study HMI116787: single ascending dose, food effect and RTV boosting, SDD PiB, healthy subjects
Format: in vivo, human
Conditions Used: human, plasma, oral; single 50 mg SDD PiB, fasted, without ritonavir, Study HMI116787; geometric mean (95% CI); read-out: AUC(0‐∞)
Value Type: AUC (ng·h/mL)
Response body: numeric value in ng·h/mL, unit text excluded.

Challenge: # get_value(readout='AUC', item= CC(C)C1=C2[C@H]3CC[C@@H]4[C@@]5(C)CC[C@H](OC(=O)CC(C)(C)C(=O)O)C(C)(C)[C@@H]5CC[C@@]4(C)[C@]3(C)CC[C@@]2([C@@H](O)CN(CCN(C)C)Cc2ccc(Cl)cc2)CC1=O )
Response given: 195

====

Test Name: Study 200912: single dose 100-200 mg, SDD versus nonmicronized API PiB, healthy subjects
Assay type: in vivo, human
Conditions Used: human, plasma, oral, 200 mg, single 200 mg SDD PiB, fasted, without ritonavir, Study 200912; median (range)
Value Type: Tmax (h)
Give your result in h as a bare value.

Challenge: Given the compound CC(C)C1=C2[C@H]3CC[C@@H]4[C@@]5(C)CC[C@H](OC(=O)CC(C)(C)C(=O)O)C(C)(C)[C@@H]5CC[C@@]4(C)[C@]3(C)CC[C@@]2([C@@H](O)CN(CCN(C)C)Cc2ccc(Cl)cc2)CC1=O , what is its reported Tmax?
Response given: 1.75

====

Test Name: Study 204953 Part 1A: single doses 50-250 mg API PiB with RTV, healthy subjects
Format: in vivo, human
Conditions Used: human, plasma, oral, single 250 mg API PiB, fasted, with ritonavir (2 days predosing), geometric mean (95% CI), read-out: AUC(0‐∞)
Value Type: AUC
Please append the unit to your numeric answer.

Challenge: Report AUC for CC(C)C1=C2[C@H]3CC[C@@H]4[C@@]5(C)CC[C@H](OC(=O)CC(C)(C)C(=O)O)C(C)(C)[C@@H]5CC[C@@]4(C)[C@]3(C)CC[C@@]2([C@@H](O)CN(CCN(C)C)Cc2ccc(Cl)cc2)CC1=O please.
Response given: 1690 ng·h/mL

====

Test Name: Study 200912: single dose 100-200 mg, SDD versus nonmicronized API PiB, healthy subjects
Type: in vivo, human
Conditions Used: human, plasma, oral, 20 mg, single 20 mg API PiB, fasted, with ritonavir (predosing 10 days), Study 200912; median (range); read-out: C24
Protocol: This was a double‐blind, randomized, placebo‐controlled, single‐dose escalation study to investigate the safety, tolerability, and PK of higher single doses of GSK2838232 (Part A) and to evaluate the relative bioavailability of the SDD and crystalline Active Pharmaceutical Ingredient (API) of GSK2838232 (Part B) in healthy subjects dosed as PiB. […] Extracts were analyzed using HPLC (Shimadzu, Nexera, 30 series) and tandem mass spectrometry detection (HPLC‐MS/MS). […]
Value Type: concentration at 24 h (ng/mL)
// units = ng/mL; emit number, no label

Challenge: Reported concentration at 24 h, compound CC(C)C1=C2[C@H]3CC[C@@H]4[C@@]5(C)CC[C@H](OC(=O)CC(C)(C)C(=O)O)C(C)(C)[C@@H]5CC[C@@]4(C)[C@]3(C)CC[C@@]2([C@@H](O)CN(CCN(C)C)Cc2ccc(Cl)cc2)CC1=O : ____
Response given: 2.56

====

Test Name: Study 204953 Part 2: repeat dosing for 11 days with RTV QD or 200 mg BID unboosted
Type: in vivo, human
Conditions Used: human, plasma, oral, 200 mg, 200 mg BID unboosted; read-out: steady‐state C24 mean concentration
Value Type: concentration at 24 h (ng/mL)
Only the number, expressed in ng/mL, is required.

Challenge: concentration at 24 h for CC(C)C1=C2[C@H]3CC[C@@H]4[C@@]5(C)CC[C@H](OC(=O)CC(C)(C)C(=O)O)C(C)(C)[C@@H]5CC[C@@]4(C)[C@]3(C)CC[C@@]2([C@@H](O)CN(CCN(C)C)Cc2ccc(Cl)cc2)CC1=O ?
Response given: 39
